normalized growth: recorded values
test: chemical genetic growth profiling, strain panel (AID 1159580);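 further: tested at 20 µM; growth read once vehicle control cultures reached saturation at 30 °C; 1 = growth at the plate median or of vehicle wells; lower values mean less growth of the strain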; conditions: S. cerevisiae deletion strains, growth OD, locus YNL271C, strain bni1, hits give low values
The whole screen tested about 5,500 compounds, of which about 2,000 (36%) were called active. Not shown: some 18% with an inconclusive outcome. The list shows a part of the results.
API doc: respond with a numeric literal and nothing else, no unit.

| compound | reportedMeasurement |
| --- | --- |
| OC1C(O)C(O)C(O)C(O)C1O (stereo not given) | 0.984 |

(Q) Would you mind telling me what normalized growth value was observed for `CN(C)CCC=C1c2ccccc2C=Cc2ccccc21` ?
(A) 0.986

(Q) Endpoint output: normalized growth of `CN(C)CCC=C1c2ccccc2CCc2ccccc21` . Value?
(A) 1

(Q) Value lookup for normalized growth; key = `NCC(=O)CCC(=O)O`
(A) 0.98

(Q) Returns the measured normalized growth for the input compound. Input: `CCCCCCc1ccc(O)cc1O`
(A) 0.952

---

experiment: chemical genetic growth profiling, strain panel (AID 1159580); conditions: S. cerevisiae deletion strains, growth OD, locus YLR320W, strain mms22, hits give low values
In all, about 5,500 compounds went through this assay and about 2,000 (36%) were called active. Inconclusive results (about 18%) are left out. The list shows a part of the results.
experimentalEndpoint: normalized growth

# annotated cases, reported normalized growth shown
| compound | normalized growth |
| --- | --- |
| COc1ccc(-c2cc(=O)c3c(OC(C)=O)cc(OC(C)=O)cc3o2)cc1 | 0.965 (inactive) |
| COc1cc([C@@H]2c3cc4c(cc3[C@H](OC(C)=O)[C@H]3COC(=O)[C@H]23)OCO4)cc(OC)c1OC | 1 (inactive) |
| CCCCOc1cc(CC2CNC(=O)N2)ccc1OC (centres undefined) | 1.02 (inactive) |

(Q) Give the measured normalized growth of `O=C1c2c(O)ccc(O)c2C(=O)c2c(NCCNCCO)ccc(NCCNCCO)c21` .
(A) 0.248 (active)

---

experiment: chemical genetic growth profiling, strain panel (AID 1159580); conditions: S. cerevisiae deletion strains, growth OD, locus YOR083W, strain WHI5 (second series)
Out of some 5,500 compounds screened, about 2,000 (36%) were called active. Roughly 18% stayed inconclusive and do not appear here. No stated cut-off is given here; in the data, active means normalized growth mostly below about 0.91 (no sharp cut-off); inconclusive means no clear call, values can overlap the other calls; inactive means mostly above about 0.92. This is one part of the list.
Valid outcomes are listed here; reply with one: active, inactive

Illustrative cases are given below, each with its answer.
| compound | assignedCategory |
| --- | --- |
| CCNC(=O)[C@H]1O[C@@H](n2cnc3c(N)nc(NCCc4ccc(CCC(=O)O)cc4)nc32)C(O)[C@H]1O (stereo partly drawn) | inactive |
| COC(=O)N1CCN(C(=O)Cc2ccc(Cl)c(Cl)c2)C(CN2CCCC2)C1 (stereo not drawn) | inactive |
| CN1CCN(C2Cc3ccccc3Sc3ccc(Cl)cc32)CC1 (stereo not drawn) | active |
| CO[C@H]1CC=C2CCN3CCC4=C(CC(=O)OC4)[C@]23C1 | inactive |
| CN(C)CCC=C1c2ccccc2CCc2ccccc21 | inactive |
| NCCNC(=O)Cc1ccc(NC(=O)Cc2ccc(Nc3ncnc4c3ncn4[C@@H]3O[C@H](CO)[C@H](O)C3O)cc2)cc1 (stereo partly drawn) | inactive |
| CN1CCc2ccccc2Cc2[nH]c3ccccc3c2CC1 | inactive |
| O=C1c2c(O)ccc(O)c2C(=O)c2c(NCCNCCO)ccc(NCCNCCO)c21 | inactive |
| C[C@@H]1C(=O)NC2=Nc3cccc(Cl)c3CN21 | inactive |
| CC(=O)C(C)=O | inactive |

(Q) For this compound, state the assay outcome: `CCN1CCC[C@H]1CNC(=O)c1c(O)c(Cl)cc(Cl)c1OC`
(A) inactive

(Q) Fill in: this test's call for CN1CC(O)C(O)C(O)C1CO (stereo not drawn) is ___
(A) inactive

(Q) Which result was noted for this compound in the test: `Nc1nnc(-c2cccc(Cl)c2Cl)c(N)n1`
(A) inactive

---

assay: chemical genetic growth profiling, strain panel (AID 1159580);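 further: tested at 20 µM; growth read once vehicle control cultures reached saturation at 30 °C; 1 = growth at the plate median or of vehicle wells; lower values mean less growth of the strain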; settings: S. cerevisiae deletion strains, growth OD, locus YJR016C, strain ILV3, hits give low values
The whole screen tested about 5,500 compounds, of which about 2,000 (36%) were called active. About 18% were inconclusive and are not listed. This is one part of the list.
The entries below come with measured normalized growth values attached.
When you answer, write just the number.

The cases that follow already have their normalized growth on record.
| molecularString | normalized growth |
| --- | --- |
| Cc1ccc2c(c1)CCCN2CC(=O)N(c1ccccc1)C1CCCCC1 | 0.985 |
| N#CCCCCOc1ccc2c(=O)cc(-c3ccccc3)oc2c1 | 0.967 |
| O=C(NCc1cccs1)c1csc(Cc2c(Cl)cccc2Cl)n1 | 0.99 |

(Q) Which measured normalized growth value corresponds to `O=C1c2ccccc2O[C@@H](c2ccccc2)[C@@H]1NCc1ccccc1` ?
(A) 0.906

(Q) # input molecule: `N/C(CSc1ncccc1C(F)(F)F)=N/OC(=O)Nc1cccc(Cl)c1` ; wanted: its normalized growth
(A) 0.989

(Q) Which normalized growth reading was recorded for the molecule `CN(C(=O)N(C)c1ccc(Cl)cc1C(=O)c1ccccc1Cl)c1ccc(Cl)cc1C(=O)c1ccccc1Cl` ?
(A) 0.883

(Q) // query normalized growth value for entry `C#Cc1cccc(N=Cc2cc(Cl)cc(Br)c2O)c1`
(A) 0.103

(Q) Bench note: what normalized growth did `COc1cc(NC(=S)Nc2ccccc2OC(F)(F)F)cc(C(F)(F)F)c1` show?
(A) 0.989

(Q) Any idea what its normalized growth is? The molecule is `O=C(NNC(=O)c1csc(-c2cccs2)n1)c1ccc(C(F)(F)F)cc1`
(A) 0.969

---

assay: chemical genetic growth profiling, strain panel (AID 1159580);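 further: tested at 20 µM; growth read once vehicle control cultures reached saturation at 30 °C; 1 = growth at the plate median or of vehicle wells; lower values mean less growth of the strain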; details: S. cerevisiae deletion strains, growth OD, locus YDR388W
Screen size: about 5,500 compounds; about 2,000 (36%) were called active. Roughly 18% stayed inconclusive and do not appear here. Rule as the data show it: active = normalized growth mostly below about 0.91 (no sharp cut-off); inconclusive = no clear call, values can overlap the other calls; inactive = mostly above about 0.92. This is one part of the list.
Write down the outcome that applies. Available outcomes: active, inactive

Worked examples, 4 compounds total:
| compound | assignedCategory |
| --- | --- |
| CCN(CCCCOC(=O)c1ccc(OC)c(OC)c1)C(C)Cc1ccc(OC)cc1 (stereo not drawn) | inactive |
| NCCc1ccc(O)c(O)c1 | inactive |
| Cc1cc(=O)c2c(O)c3c(cc2o1)OC(C)(C)CC3 | inactive |
| CC(=O)Oc1c(-c2ccccc2)oc2c(CC=C(C)C)c3c(c(OC(C)=O)c2c1=O)C=CC(C)(C)O3 | inactive |

(Q) Hello, I am checking results. What call was entered for `Clc1ccc(Cl)cc1` ?
(A) inactive

(Q) Short answer needed: outcome of this test for `O=C(O)c1nc2cc(Cl)c(Cl)cc2[nH]c1=O` ?
(A) inactive

(Q) Dear all, I need the recorded test outcome for COCCOC(=O)C1=C(C)NC(C)=C(C(=O)OC(C)C)C1c1cccc([N+](=O)[O-])c1 (stereo not drawn) , thank you.
(A) inactive

(Q) Tell me the assay call for `COC(=O)C1=C(C)NC(C)=C(C(=O)OC)C1c1ccccc1[N+](=O)[O-]` please.
(A) inactive

(Q) Query: recorded result category for `COc1ccc(-c2coc3cc(OC)cc(O)c3c2=O)cc1` in this test
(A) inactive

(Q) Which outcome was assigned to `COc1cc(O)c2c(=O)c(-c3ccc(O)cc3)coc2c1` in this test?
(A) inactive

(Q) Tell me the recorded outcome of this test for `CCCN1C[C@H](CSC)C[C@@H]2c3cccc4[nH]cc(c34)C[C@H]21` .
(A) inactive

(Q) Outcome logged for Cc1cc(=O)c2c(O)c3c(cc2o1)OCC(C)CC3 (stereo not drawn) in this assay:
(A) active

(Q) Outcome logged for CC(=O)[C@H]1CCC2C3CC=C4C[C@@H](O)CC[C@]4(C)C3CC[C@@]21C (stereo partly drawn) in this assay:
(A) inactive

---

assay: chemical genetic growth profiling, strain panel (AID 1159580);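 further: tested at 20 µM; growth read once vehicle control cultures reached saturation at 30 °C; 1 = growth at the plate median or of vehicle wells; lower values mean less growth of the strain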; details: S. cerevisiae deletion strains, growth OD, locus YMR129W, hits give low values
The whole screen tested about 5,500 compounds, of which about 2,000 (36%) were called active. About 18% were inconclusive and are not listed. Some of the results follow.
Property: normalized growth; scope: individual compounds
Simply state the number, no unit and no words.

For orientation, consider the following solved cases.
| compound | reportedMeasurement |
| --- | --- |
| CC(=O)O[C@@H]1CC2C(C)(C)CCC(=O)[C@]2(C)C2CC[C@@]3(C)[C@H](c4ccoc4)OC(=O)C4OC43[C@@]21C (stereo not given in full) | 1.01 |
| CCN(CC)CCNc1ccc(CO)c2sc3ccccc3c(=O)c12 | 1 |
| NS(=O)(=O)c1cc2c(cc1C(F)(F)F)NCNS2(=O)=O | 0.999 |
| O=c1[nH]c2cc(Cl)c(Cl)cc2[nH]c1=O | 1.01 |

(Q) Return reported normalized growth; argument: `COc1ccc(-c2cc(=O)c3cc(OC)ccc3o2)cc1`
(A) 0.949
